Assay: chemical genetic growth profiling, strain panel (AID 1159580);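 further: tested at 20 µM; growth read once vehicle control cultures reached saturation at 30 °C; 1 = growth at the plate median or of vehicle wells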
Settings: S. cerevisiae deletion strains, growth OD, locus YJR066W, strain TOR1, stronger effect = lower value
Screen size: about 5,500 compounds; about 2,000 (36%) were called active. Inconclusive results (about 18%) are left out. The list shows a part of the results.
Criterion: normalized growth strictly under 0.9. Met: yes (1). Not met: no (0).

Known results for compounds:
| COMPOUND | CLASS ASSIGNMENT |
| --- | --- |
| CC1(C)S[C@@H]2[C@H](NC(=O)[C@@H](N)c3ccc(O)cc3)C(=O)N2[C@H]1C(=O)O | no (0) |
| N#Cc1c(Cl)cccc1Cl | no (0) |
| C=CCSCC=C | no (0) |
| COC(=O)NC(=S)Nc1ccccc1NC(=S)NC(=O)OC | yes (1) |
| O=C(O/N=C1/CCCc2[nH]c3ccccc3c21)c1ccc(Cl)cc1Cl | no (0) |

[ask] Record CC1=CC(=O)C2C(C)(C)CCC[C@]2(C)[C@@]1(O)CCc1ccoc1 (stereo not given in full) : is its normalized growth strictly below 0.9?
[reply] no (0)

[ask] Record ONC(=Nc1ccccc1Cl)c1ccccc1Cl : is its normalized growth strictly below 0.9?
[reply] yes (1)

* * *

Assay: chemical genetic growth profiling, strain panel (AID 1159580)
Conditions: S. cerevisiae deletion strains, growth OD, locus YNR049C, strain mso1, stronger effect = lower value
The whole screen tested about 5,500 compounds, of which about 2,000 (36%) were called active. Not shown: some 18% with an inconclusive outcome. This is one part of the list.
PARAMETER: normalized growth
Numbers only.

Before answering, review these 4 worked examples.
| COMPOUND | normalized growth |
| --- | --- |
| CCn1nc(C(=O)O)c(=O)c2cc3c(cc21)OCO3 | 1.01 |
| Nc1ccc(S(=O)(=O)Nc2ncccn2)cc1 | 0.98 |
| NS(=O)(=O)c1cc2c(cc1C(F)(F)F)NC(Cc1ccccc1)NS2(=O)=O (stereo not given) | 0.986 |
| CC1(C)O[C@@H]2CC3C4C[C@H](F)C5=CC(=O)CC[C@]5(C)C4[C@@H](O)C[C@]3(C)[C@]2(C(=O)CO)O1 (stereo not given in full) | 1 |

Now for the compound whose normalized growth we want.
[ask] Tell us which normalized growth value is on record for CC(=O)OCC(=O)[C@@]1(O)CCC2C3C[C@H](C)C4=CC(=O)C=CC4(C)C3[C@@H](O)CC21C (stereo not given in full)
[reply] 1.02

* * *

Experiment: chemical genetic growth profiling, strain panel (AID 1159580)
Settings: S. cerevisiae deletion strains, growth OD, locus YOR265W, strain rbl2
The campaign covered roughly 5,500 compounds. About 2,000 (36%) were called active. Not shown: some 18% with an inconclusive outcome. No stated cut-off is given here; in the data, active means normalized growth mostly below about 0.91 (no sharp cut-off); inconclusive means no clear call, values can overlap the other calls; inactive means mostly above about 0.92. Some of the results follow.
Thanks in advance; please answer with one of these: active, inactive

Known results for compounds:
| COMPOUND | CLASS ASSIGNMENT |
| --- | --- |
| C[C@H]1[C@H](C)CC[C@]2(C(=O)O)CC[C@]3(C)C(=CCC4[C@@]5(C)C[C@@H](O)[C@H](O)[C@@](C)(CO)C5[C@H](O)C[C@]43C)[C@H]12 (some centres undefined) | inactive |
| OC1(c2ccc(Cl)c(C(F)(F)F)c2)CCN(CCCC(c2ccc(F)cc2)c2ccc(F)cc2)CC1 | active |
| CN[C@H]1CC[C@@H](c2ccc(Cl)c(Cl)c2)c2ccccc21 | inactive |
| O=C1CC2(CCCC2)CC(=O)N1CCCCN1CCN(c2ncccn2)CC1 | inactive |

[ask] What is the recorded call for this compound in the test? COC(=O)NC(=S)Nc1ccccc1NC(=S)NC(=O)OC
[reply] inactive

[ask] What is the recorded call for this compound in the test? O=C(CCCN1CCN(c2ccccn2)CC1)c1ccc(F)cc1
[reply] inactive

[ask] What is the recorded call for this compound in the test? C[C@@H]1CCC2[C@](C)(CO)[C@@H](O)CC[C@]2(C)[C@@]12CC[C@@](CO)(CCO)O2 (some centres undefined)
[reply] inactive

[ask] What is the recorded call for this compound in the test? CC(C)Nc1nc(Cl)nc(NC(C)C)n1
[reply] inactive

[ask] What is the recorded call for this compound in the test? CCCc1nn(C)c2c(=O)[nH]c(-c3cc(S(=O)(=O)N4CCN(C)CC4)ccc3OCC)nc12
[reply] inactive

* * *

Experiment: chemical genetic growth profiling, strain panel (AID 1159580);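 further: tested at 20 µM; growth read once vehicle control cultures reached saturation at 30 °C; 1 = growth at the plate median or of vehicle wells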
Conditions: S. cerevisiae deletion strains, growth OD, locus YDL005C, strain med2, stronger effect = lower value
Screen size: about 5,500 compounds; about 2,000 (36%) were called active. Roughly 18% stayed inconclusive and do not appear here. This is one part of the list.
PARAMETER: normalized growth
One number for each entry.

Before answering, review these 4 worked examples.
| COMPOUND | normalized growth |
| --- | --- |
| C[N+]1(C)C[C@H](O)[C@H](C(=O)[O-])C1 | 1.01 |
| CCn1nc(C(=O)O)c(=O)c2cc3c(cc21)OCO3 | 0.998 |
| CC(C)(C)NCC(O)COc1cccc2c1CCCC2=O (stereo not given) | 0.987 |
| C[C@H]1[C@H](C)CC[C@]2(C(=O)O)CC[C@]3(C)C(=CCC4[C@@]5(C)C[C@@H](O)[C@H](O)[C@@](C)(CO)C5[C@H](O)C[C@]43C)[C@H]12 (stereo not given in full) | 0.948 |

[ask] Tell us which normalized growth value is on record for NC(=O)c1cc([N+](=O)[O-])cc([N+](=O)[O-])c1
[reply] 1.03

* * *

Experiment: chemical genetic growth profiling, strain panel (AID 1159580);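 further: tested at 20 µM; growth read once vehicle control cultures reached saturation at 30 °C; 1 = growth at the plate median or of vehicle wells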
Settings: S. cerevisiae deletion strains, growth OD, locus YDL005C, strain med2, stronger effect = lower value
Hit rate of the full screen: of about 5,500 compounds, about 2,000 (36%) were called active. About 18% were inconclusive and are not listed. The list shows a part of the results.
PARAMETER: normalized growth
Answers are plain numbers.

Before answering, review these 5 worked examples.
| MOLECULE | normalized growth |
| --- | --- |
| NC[C@@H]1O[C@H](O[C@@H]2[C@@H](CO)OC(O[C@@H]3[C@@H](O)[C@H](N)C[C@H](N)[C@H]3O[C@H]3O[C@H](CO)[C@@H](O)[C@H](O)[C@H]3N)[C@@H]2O)[C@H](N)[C@@H](O)[C@@H]1O (stereo partly specified) | 0.992 |
| CC(=O)OC1CC[C@@]2(C)C(CCC3C2CC[C@]2(C)C(C4=CC(=O)OC4)C(OC(C)=O)CC32O)C1 (stereo partly specified) | 0.972 |
| C[C@H]1O[C@@H](O[C@H]2[C@@H](O)C[C@H](O[C@H]3[C@@H](O)C[C@H](O[C@H]4CC[C@]5(C)C6C[C@@H](O)[C@]7(C)[C@@H](C8=CC(=O)OC8)CC[C@]7(O)C6CC[C@@H]5C4)O[C@@H]3C)O[C@@H]2C)C[C@H](O)[C@@H]1O (stereo partly specified) | 0.98 |
| CC1(C)[C@@H]2CC[C@@]1(C)C(=O)C2 | 1.01 |
| NC[C@H]1O[C@H](OC2[C@@H](N)C[C@@H](N)[C@H](O[C@H]3O[C@H](CO)[C@@H](O)[C@H](N)[C@H]3O)[C@H]2O)[C@H](O)[C@@H](O)[C@@H]1O (stereo partly specified) | 0.994 |

Now for the molecule whose normalized growth we want.
[ask] Tell us which normalized growth value is on record for C[C@]12CCC3C(CC[C@]4(O)C[C@@H](O)CC[C@]34C=O)[C@@]1(O)CCC2C1=CC(=O)OC1 (stereo partly specified)
[reply] 0.969

* * *

Assay: chemical genetic growth profiling, strain panel (AID 1159580);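 further: tested at 20 µM; growth read once vehicle control cultures reached saturation at 30 °C; 1 = growth at the plate median or of vehicle wells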
Conditions: S. cerevisiae deletion strains, growth OD, locus YPR141C, strain kar3, stronger effect = lower value
The whole screen tested about 5,500 compounds, of which about 2,000 (36%) were called active. Another 18% or so got no clear call; they are omitted. The list shows a part of the results.
Would you kindly list normalized growth for each of these compounds?
Answers are plain numbers.

Before answering, review these 6 worked examples.
| COMPOUND | RECORDED NUMBER |
| --- | --- |
| C[C@H]1O[C@@H](O[C@H]2[C@@H](O)C[C@H](O[C@H]3[C@@H](O)C[C@H](O[C@H]4CC[C@]5(C)C6CC[C@]7(C)[C@@H](C8=CC(=O)OC8)CC[C@]7(O)C6CC[C@@H]5C4)O[C@@H]3C)O[C@@H]2C)C[C@H](O)[C@@H]1O (some centres undefined) | 0.953 |
| COc1ccc(-c2cc(=O)c3c(O)cc(O)c(-c4cc(-c5cc(=O)c6c(O)cc(O)cc6o5)ccc4OC)c3o2)cc1 | 1.01 |
| CCOC(=O)CC(SP(=S)(OC)OC)C(=O)OCC (centres undefined) | 1 |
| COc1ccccc1N1CCN(CCCNc2cc(=O)n(C)c(=O)n2C)CC1 | 0.967 |
| Oc1ccc2c3c1OC1[C@@H](O)CC[C@@]4(O)[C@@H](C2)N(CC2CCC2)CC[C@]314 (some centres undefined) | 1.02 |
| CC(C)Nc1nc(Cl)nc(NC(C)C)n1 | 1.02 |

Look at each compound and report its normalized growth.
1. CC(C)(C)NCC(O)COc1cccc2c1C[C@H](O)[C@H](O)C2 (some centres undefined)
2. CCCc1nn(C)c2c(=O)[nH]c(-c3cc(S(=O)(=O)N4CCN(C)CC4)ccc3OCC)nc12
3. CSc1nc(NC(C)C)nc(NC(C)C)n1
4. CCC(=O)OCC(=O)[C@@]1(OC(=O)CC)[C@@H](C)CC2C3CCC4=CC(=O)C=C[C@]4(C)C3(F)[C@@H](O)C[C@@]21C (some centres undefined)

[reply]
1. 0.994
2. 0.993
3. 1.02
4. 0.964
